Listing of entries alongside the reported IC50.
# MEASURED_TARGET: PD-1/PD-L1 (Homo sapiens (Human))
# Sequence (Q9NZQ7 19-238): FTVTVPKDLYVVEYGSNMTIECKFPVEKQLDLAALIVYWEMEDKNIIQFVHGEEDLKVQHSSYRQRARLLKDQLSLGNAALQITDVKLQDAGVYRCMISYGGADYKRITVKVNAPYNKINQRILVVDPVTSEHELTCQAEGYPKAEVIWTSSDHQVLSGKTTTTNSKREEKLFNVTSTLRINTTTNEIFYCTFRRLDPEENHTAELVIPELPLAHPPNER
# TEST_METHOD_NOTES: PD-1/PD-L1 Binding Assay (Alphascreen)
# ASSAY_SETUP: range symbols
# Method: PD-1/PD-L1 Binding Assay (Alphascreen) The assays were conducted in a standard black 384-well polystyrene plate with a final volume of 20 μL. Inhibitors were first serially diluted in DMSO and then added to the plate wells before the addition of other reaction components. The final concentration of DMSO in the assay was 1%. […] Read the AlphaLISA signal value using the Envision Reader. […]

Study these solved cases before continuing.
Cc1c(-c2nc3cc(CN4CCCC4)cc(C#N)c3[nH]2)cccc1-c1cccc(-c2nc3cc(CN4CCC[C@H]4C(=O)O)c(OC(F)F)cc3o2)c1C :: 5 to 50 nM
Cc1c(-c2ccc(CN3CCC(NC(N)=O)C3)c(F)c2)cccc1-c1cccc(-c2nc3cc(CN4CCC[C@H]4C(=O)O)c(OC(F)F)cc3o2)c1C (some centres unmarked) :: 5 to 50 nM
Cc1c(-c2nc3cc(CN4CCC[C@H]4C(=O)O)c(OC(F)F)cc3o2)cccc1-c1cccc(-c2nc3cc(CNCC4CCC(=O)N4)cnc3o2)c1C (some centres unmarked) :: 0.1 to 5 nM

IC50 for Cc1c(-c2nc3cc(CN4CCC[C@H]4C(=O)O)c(OC(F)F)cc3o2)cccc1-c1cccc(-c2nc3cc(CN4CC(C)C(N(C)C)C4)cc(C#N)c3o2)c1C (some centres unmarked) ?
0.1 to 5 nM

IC50 for Cc1c(-c2nc3cc(CN4CC5(COC5)C4)c(OC(F)F)cc3o2)cccc1-c1cccc(-c2nc3cc(CN4CCC[C@H]4C(=O)O)c(OC(F)F)cc3o2)c1C ?
0.1 to 5 nM

IC50 for Cc1c(-c2nc3c(o2)CCC3)cccc1-c1cccc(-c2nc3cc(CN4CCC[C@H]4C(=O)O)c(OC(F)F)cc3o2)c1C ?
0.1 to 5 nM

IC50 for Cc1c(-c2nc3cc(CN4CCC[C@H]4C(=O)O)c(OC(F)F)cc3o2)cccc1-c1cccc(-c2nc3cc(CN4CCC5(C4)CC5(F)F)cc(C#N)c3o2)c1C (some centres unmarked) ?
0.1 to 5 nM

IC50 for Cc1c(-c2nc3cc(CN4CCC[C@H]4C(=O)O)c(OC(F)F)cc3o2)cccc1-c1cccc(-c2nc3cc(CN4CCC(C)(C#N)C4)cc(C#N)c3o2)c1C (some centres unmarked) ?
5 to 50 nM

IC50 for Cc1c(-c2nc3c(o2)CCN(CC2CCC(=O)N2)C3)cccc1-c1cccc(-c2nc3cc(CN4CCC[C@H]4C(=O)O)c(OC(F)F)cc3o2)c1C (some centres unmarked) ?
5 to 50 nM

----------
# TEST_METHOD_NOTES: Pharmacokinetic Assay, single oral dose 100 mg/kg (Table 11)
# Type: in vivo
# ASSAY_SETUP: mouse, C57 female mice, oral (intragastric), plasma
ASSAY_READOUT: AUC (µg·h/mL)

Study these solved cases before continuing.
Cc1c(-c2nc3cc(CN4CC5(CC5)C4)c(OC(F)F)cc3o2)cccc1-c1cccc(-c2nc3cc(CN4CCC[C@H]4C(=O)O)c(OC(F)F)cc3o2)c1C :: 59.5
Cc1c(-c2nc3cc(CN4CCC[C@H]4C(=O)O)c(OC(F)F)cc3o2)cccc1-c1cccc(-c2nc3cc(CN4CCCC4)c(OC(F)F)cc3o2)c1C#N :: 40.4
Cc1c(-c2nc3cc(CN4CC(N(C)C)C4)c(OC(F)F)cc3o2)cccc1-c1cccc(-c2nc3cc(CN4CCC[C@H]4C(=O)O)c(OC(F)F)cc3o2)c1C :: 8.92
Cc1c(-c2nc3cc(CN4CC(C)(C)C4)c(OC(F)F)cc3o2)cccc1-c1cccc(-c2nc3cc(CN4CCC[C@H]4C(=O)O)c(OC(F)F)cc3o2)c1C :: 56.1

A: Cc1c(-c2nc3cc(CN4CCC[C@H]4C(=O)O)c(OC(F)F)cc3o2)cccc1-c1cccc(-c2nc3cc(CN4CC(C)(C)C4)cc(C(F)(F)F)c3o2)c1C
B: Cc1c(-c2nc3cc(CN(C)C)c(OC(F)F)cc3o2)cccc1-c1cccc(-c2nc3cc(CN4CCC[C@H]4C(=O)O)c(OC(F)F)cc3o2)c1C
Between A and B , which one shows the larger AUC value? To answer, give the label that identifies your chosen option.
A

P: Cc1c(-c2nc3cc(CN4CCC(C)C4)c(OC(F)F)cc3o2)cccc1-c1cccc(-c2nc3cc(CN4CCC[C@H]4C(=O)O)c(OC(F)F)cc3o2)c1C (some centres unmarked)
Q: Cc1c(-c2nc3cc(CN4CCC4)c(OC(F)F)cc3o2)cccc1-c1cccc(-c2nc3cc(CN4CCC[C@H]4C(=O)O)c(OC(F)F)cc3o2)c1C
R: Cc1c(-c2ccc(CN3CCCC3)c(OC(F)F)c2)cccc1-c1cccc(-c2nc3cc(CN4CCC[C@H]4C(=O)O)c(OC(F)F)cc3o2)c1C
S: CNCc1cc2nc(-c3cccc(-c4cccc(-c5nc6cc(CN7CCC[C@H]7C(=O)O)c(OC(F)F)cc6o5)c4C)c3C)oc2cc1OC(F)F
Your job: order these 4 records by AUC, ascending. A complete answer lists every label in the requested sequence.
S, Q, R, P
(S: 5.71 µg·h/mL, Q: 8.24 µg·h/mL, R: 78.1 µg·h/mL, P: 118 µg·h/mL)

----------
# TEST_METHOD_NOTES: Pharmacokinetic Assay, single oral dose 5 mg/kg (Table 12)
# Format: in vivo
# ASSAY_SETUP: mouse; plasma concentration, C57 female mice, single oral dose 5 mg/kg, 2 h
ASSAY_READOUT: concentration at 2 h (ng/mL)

Cc1c(-c2nc3cc(CN4CCCC4)c(OC(F)F)cc3o2)cccc1-c1cccc(-c2nc3cc(CN4CCC[C@@H]4C(=O)O)c(OC(F)F)cc3o2)c1C :: 137

P: Cc1c(-c2nc3c(o2)CCOC3)cccc1-c1cccc(-c2nc3cc(CN4CCC[C@H]4C(=O)O)c(OC(F)F)cc3o2)c1C
Q: COc1nc(-c2cccc(-c3cccc(-c4nc5cc(CN6CCC[C@H]6C(=O)O)c(OC(F)F)cc5o4)c3C)c2C)ccc1CNCC1CCC(=O)N1 (stereo partly drawn)
Between P and Q , which one shows the larger concentration at 2 h value? To answer, give the label that identifies your chosen option.
P

----------
# TEST_METHOD_NOTES: Pharmacokinetic Assay, single oral dose 5 mg/kg (Table 12)
# Assay type: in vivo
# ASSAY_SETUP: mouse; plasma concentration, C57 female mice, single oral dose 5 mg/kg, 2 h
ASSAY_READOUT: concentration at 2 h (µg/mL)

Study these solved cases before continuing.
Cc1c(-c2nc3cc(CN4CCC[C@H]4C(=O)O)c(OC(F)F)cc3o2)cccc1-c1cccc(-c2nc3cc(CN4CC5CC4C5)cc(C(F)(F)F)c3o2)c1C [Example 89] :: 0.124
COc1nc(-c2cccc(-c3cccc(-c4nc5cc(CN6CCC[C@H]6C(=O)O)c(OC(F)F)cc5o4)c3C)c2C)ccc1CN1CC[C@H](C)C1 [Example 246] :: 0.261

1: Cc1c(-c2ccc(CN3CC[C@@H](c4ccccc4)C3)c(F)c2)cccc1-c1cccc(-c2nc3cc(CN4CCC[C@H]4C(=O)O)c(OC(F)F)cc3o2)c1C [Example 248]
2: Cc1c(-c2ccc(CN3CC(C)(C)C3)c(F)c2)cccc1-c1cccc(-c2nc3cc(CN4CCC[C@H]4C(=O)O)c(OC(F)F)cc3o2)c1C [Example 237]
Compare 1 and 2 and name the one whose reported concentration at 2 h is smaller. To answer, give the label that identifies your chosen option.
2
(2: 0.178 µg/mL, 1: 0.271 µg/mL)

----------
# Test system: PD-1/PD-L1 interaction (Jurkat T cells expressing hPD-1 and PD-L1 aAPC/CHO-K1 cells expressing hPD-L1)
# TEST_METHOD_NOTES: NFAT Assay (PD-1/PD-L1 Blockade Bioassay, luciferase reporter)
# Assay type: cell-based
# ASSAY_SETUP: Homo sapiens; PD-1 effector Jurkat cells + PD-L1 aAPC/CHO-K1 cells, Bio-Glo luciferase
Listing of entries alongside the reported pEC50.
pEC50 (log units): -log10 of the concentration in mol/L.

Study these solved cases before continuing.
Cc1c(-c2nc3cc(CN4CCC[C@H]4C(=O)O)c(OC(F)F)cc3o2)cccc1-c1cccc(-c2nc3cc(CN4CC(C)(C)C4)cc(C#N)c3o2)c1C :: 6.60
Cc1c(-c2nc3cc(CN4CCC[C@H]4C(=O)O)ccc3o2)cccc1-c1cccc(-c2nc3cc(CN4CC(C)(C)C4)cc(C#N)c3o2)c1C :: 5.49
Cc1c(-c2nc3cc(CN4CCC[C@H]4C(=O)O)ccc3o2)cccc1-c1cccc(-c2nc3cc(CN4CCCC4)c(OC(F)F)cc3o2)c1C :: 5.33

With those in mind, consider the next compound.
pEC50 for Cc1c(-c2nc3cc(CN4CCCC4)c(OC(F)F)cc3o2)cccc1-c1cccc(-c2nc3cc(CN4CCC[C@H]4C(=O)O)c(OC(F)F)cc3o2)c1C ?
6.50
